Value source: patent US20160185837A1

- target.system: human glucagon receptor (human, UniProt P47871 26-477)
- assay.protocol: cell-based or functional assay
Reported values of cAMP EC50, Batch 3 for individual entries
recorded.endpoint: cAMP EC50, Batch 3 (nM)

> print(dat)
                                     binder  value.operator   val
1  IP295 (Fc fusion) YSEGTFTSDYSKLLEEEAVRLFIEWLLAGGPSSGAPPPSGGGGGSGGGGSGGGGSGGGGSATHTCPPC               =    23
2  IP243 (Fc fusion) YSEGTFTSDYSKLLEEEAQRLFIEWLVKGPAAAGGSGSTASSGSGSATGGGGAATHTCPPCPAPEF               =  1400
3  IP280 (Fc fusion) YSEGTFTSDYSKLLEEEAVRLFIEWLVKGGPSSGAPPPSGGGGGSGGGGSGGGGSGGGGSATHTCPPC               =   280
4  IP296 (Fc fusion) YSEGTFTSDYSKLLEEEAVRCFIEWLVKGGPSSGAPPCSGGGGGGGGGGGGGGGGGGGGGGGGACPPC               >  4490
